meta.source: patent US5298488A

system: fibronectin; assay: Cell adhesion-inhibitory test against fibronectin (competitive assay, number of adhered cells); format: cell-based, human; settings: concentration .25 mg/ml; endothelium cells of blood vessel; 37° C., one hour; 0 mg/ml control 160
No end group written: not given here. sulfated succinylated CM‑chitin = sulfated succinylated CM-chitin
Below: a set of entries, each annotated with reported Cell Adhesion-Inhibitory effect Against Fibronectin (number of adhered cells).
Answer in cell/well, number only, no unit symbol.

Sample records with Cell Adhesion-Inhibitory effect Against Fibronectin (number of adhered cells):
Phthaloyl derivative of CM-Chitin Arg-Gly-Asp-Ser (RGDS; also: conjugated to phthaloyl CM-chitin) [CM--chitin derivative-4]; 141
Sulfated Succinylated CM-Chitin-Gly-Arg-Gly-Asp-Ser ({sulfated succinylated CM‑chitin}-GRGDS) [CM--chitin derivative-16]; 103
Itaconyl Derivative of CM-Chitin Arg-Gly-Asp-Ser (RGDS; also: conjugated to itaconyl CM-chitin) [CM--chitin derivative-5]; 136

Kindly note the recorded Cell Adhesion-Inhibitory effect Against Fibronectin (number of adhered cells) for CM-Chitin-Gly-Arg-Gly-Asp-Ser-Pro [CM--chitin derivative-19] , which is 127
